TGI overview
system: OVCAR-4 ovarian; assay: NCI tumour cell line growth inhibition, 48 h

Some molecules with recorded TGI:
molecule: CCSc1[nH]c(NC(=S)NC(=O)c2ccccc2Cl)c(C(N)=O)c1C(N)=O
metric_name: TGI
measured: > 10 µM
//
molecule: O=c1[nH]c2cc(Cl)ccc2nc1/C(=N\O)C(O)c1cccc([N+](=O)[O-])c1 (stereo not given)
metric_name: TGI
measured: > 100 µM

-- ask Hello, I am looking for reported TGI with OVCAR-4 ovarian for "CCOC(=O)c1cnc2oc3ccc(O)cc3c2c1C" . Could you help?
-- reply > 100 µM

-- ask Hello, I am looking for reported TGI with OVCAR-4 ovarian for "COc1ccc2nc3cccc([N+](=O)[O-])c3c(NCCCCCC(=O)O)c2c1" . Could you help?
-- reply 1.72 µM

-- ask Hello, I am looking for reported TGI with OVCAR-4 ovarian for CCOC(=O)C1=C(C)OC2(O)C=CC(O)=C3C(=O)N(c4ccccc4)C(=O)C312 (stereo not given) . Could you help?
-- reply > 100 µM

-- ask Hello, I am looking for reported TGI with OVCAR-4 ovarian for "CC(C)N(Cc1ccccc1)c1c(S)ssc1=S" . Could you help?
-- reply > 100 µM

-- ask Hello, I am looking for reported TGI with OVCAR-4 ovarian for "O=C(CCCCCCCCC(=O)N/N=C\c1ccccc1O)N/N=C\c1ccccc1O" . Could you help?
-- reply > 100 µM

-- ask Hello, I am looking for reported TGI with OVCAR-4 ovarian for "COC1=C(OC)C(=O)C(Cc2c(Cl)nc3sc(C)cn23)=C(C)C1=O" . Could you help?
-- reply 20.6 µM

-- ask Hello, I am looking for reported TGI with OVCAR-4 ovarian for "C=Cc1ccc(C)[n+](C[Si](C)(C)O[Si](C)(C)C)c1" . Could you help?
-- reply > 100 µM

-- ask Hello, I am looking for reported TGI with OVCAR-4 ovarian for "C=C1C(=O)O[C@H]2[C@H]1CC/C(COC(=O)NCc1cn(C)c3ccccc13)=C\CC[C@@]1(C)O[C@@H]21" . Could you help?
-- reply 7.92 µM

###

GI50 overview
tested on: TK-10 renal; assay: NCI tumour cell line growth inhibition, 48 h

Some compounds with recorded GI50:
compound: CC(C)(C)OC(=O)N1CCN(CCn2cc(C(F)(F)F)c3c(Cl)ncnc32)CC1
GI50: 19.7 µM

compound: COc1ccc(C(=O)c2cc(OC)c(OC)c(OC)c2)cc1OC(=O)CCl
GI50: 19.4 µM

compound: O=C1Nc2ccccc2/C1=C/C(=O)c1coc2c1C(=O)c1ccccc1C2=O
GI50: > 100 µM

compound: c1ccc2[nH]c(-c3ccc(-c4nccc5c4[nH]c4ccccc45)cc3)nc2c1
GI50: 2.07 µM

-- ask # input compound: C=C1CCC2C3(C)COC(c4ccc(N(C)C)cc4)OC3CCC2(C)C1C/C=C1/C(=O)OCC1O (stereo not drawn) ; wanted: its GI50
-- reply 8 µM

-- ask # input compound: "C(#Cc1ccccc1C#Cc1cccs1)c1cccs1" ; wanted: its GI50
-- reply 27.7 µM

-- ask # input compound: "FC(F)(F)c1ccc(Nc2nc(-c3c(C(F)(F)F)nc4ccccn34)cs2)cc1" ; wanted: its GI50
-- reply 0.917 µM

-- ask # input compound: "COc1cc(C(=O)O[C@H](C(=O)NCCCCCNC(=O)[C@@H](OC(=O)c2cc(OC)cc3c(C)cccc23)[C@]2(C)CO2)[C@]2(C)CO2)c2cccc(C)c2c1" ; wanted: its GI50
-- reply 0.661 µM

###

tested on: SN12C renal; assay: NCI tumour cell line growth inhibition, 48 h
metric_name: TGI

Some compounds with recorded TGI:
compound: C/C(=N\NS(=O)(=O)c1ccc(C)cc1)C(CN1CCCCC1)C(c1ccccc1)c1c(O)c2ccccc2oc1=O (stereo not drawn)
TGI: > 100 µM
--
compound: O=C(O)C(/C=C/c1ccccc1)c1ccccc1 (stereo not drawn)
TGI: > 100 µM
--
compound: CN(C)Nc1cc(=O)[nH]c(=O)[nH]1
TGI: > 100 µM
--
compound: COC(=O)/C=C(/C)n1nc2ccccc2n1
TGI: > 100 µM
--
compound: COc1ccc(-c2cn(-c3cc(OC)c(OC)c(OC)c3)c(SCc3ccccc3)n2)cc1OC
TGI: > 100 µM

-- ask Hello, I am looking for reported TGI with SN12C renal for "CC(C)(C)n1cc(-c2ccnc(NCCCNS(=O)(=O)c3ccc(C(F)(F)F)cc3)c2)c(-c2cccc(O)c2)n1" . Could you help?
-- reply 3.03 µM

-- ask Hello, I am looking for reported TGI with SN12C renal for "O=C1/C(=C/c2cccc(F)c2)CCCc2ccccc21" . Could you help?
-- reply 31.8 µM

-- ask Hello, I am looking for reported TGI with SN12C renal for "Cc1nn2c(/C=C3\C(=O)Nc4ccc(Cl)cc43)c(C)nc2s1" . Could you help?
-- reply > 100 µM

###

system: SW-620 colon; assay: NCI tumour cell line growth inhibition, 48 h; in the data active means GI50 below about 0.43 µM; inactive means the rest
Use one of these outcomes when replying: active, inactive

See these solved cases before continuing.
molecule: C=C1C(=O)O[C@H]2[C@H]1CC/C(COC(=O)NCc1cn(C)c3ccccc13)=C\CC[C@@]1(C)O[C@@H]21
study_system: SW-620 colon
assigned_label: inactive

molecule: COc1cc(NC(C)CCCNC2CN3CCC2CC3)c2ncccc2c1 (configuration not stated)
study_system: SW-620 colon
assigned_label: inactive

molecule: COC(=O)c1nc(-c2ccccc2)oc1S(=O)(=O)Cc1ccccc1
study_system: SW-620 colon
assigned_label: inactive

molecule: CC1CCC(NC(=O)N(CCCl)N=O)CC1 (configuration not stated)
study_system: SW-620 colon
assigned_label: inactive

molecule: CC(C)(C)c1ccc(Oc2nccc(-c3c(-c4ccc(F)cc4)ncn3C3CCNCC3)n2)cc1
study_system: SW-620 colon
assigned_label: inactive

-- ask Recorded test call requested for "Cc1nn2c(/C=C3\C(=O)Nc4ccc(Cl)cc43)c(C)nc2s1"
-- reply inactive

-- ask Recorded test call requested for "FC(F)(F)c1ccc(Nc2nc(-c3c(C(F)(F)F)nc4ccccn34)cs2)cc1"
-- reply active

-- ask Recorded test call requested for COc1ccc(C(=O)OC2C(OC3C(O)COC(O[C@H]4C[C@H]5[C@@H]6CC=C7C[C@@H](O)CC[C@]7(C)[C@H]6CC[C@]5(C)[C@H]4[C@H](C)C(=O)CCC(C)C)C3OC(N)=O)OCC(O)C2O)cc1 (some centres not stated)
-- reply active

-- ask Recorded test call requested for COc1cc2c(c(OC)c1OC)-c1ccc(SC)c(=O)cc1C(CO)C2 (configuration not stated)
-- reply active

-- ask Recorded test call requested for "O=[N+]([O-])O.[Cu+2].[NH-]CC[NH-].[NH-]CC[NH-]"
-- reply inactive

-- ask Recorded test call requested for "CC(C)N(Cc1ccccc1)c1c(S)ssc1=S"
-- reply inactive

-- ask Recorded test call requested for "COc1cnc2c(c1)C(=O)c1c-2n(CCCn2ccnc2)c(=O)c2cc(F)ccc12"
-- reply active

-- ask Recorded test call requested for "CN(CCCn1c2c(c3ccccc3c1=O)C(=O)c1ccccc1-2)CCCn1c2c(c3ccccc3c1=O)C(=O)c1ccccc1-2"
-- reply active

###

TGI overview
tested on: MDA-MB-231 breast; experiment: NCI tumour cell line growth inhibition, 48 h

Some molecules with recorded TGI:
molecule: COC1=C(OC)C(=O)C(Cc2c(Cl)nc3sc(C)cn23)=C(C)C1=O
study_system: MDA-MB-231 breast
metric_name: TGI
measured: 41.8 µM
//
molecule: CCc1c2c([nH]c(=S)c1C#N)CCC2
study_system: MDA-MB-231 breast
metric_name: TGI
measured: > 100 µM
//
molecule: COc1cc(CSc2nc3ccc(C)cc3c(=O)n2-c2ccccc2)cc(OC)c1OC
study_system: MDA-MB-231 breast
metric_name: TGI
measured: > 100 µM

-- ask # input molecule: "COc1cc(C[C@H]2c3cc(OC)c(OC)cc3CCN2C)c(Oc2cc3c(cc2OC)-c2c(OC)c(OC)cc4c2[C@H](C3)N(C)CC4)cc1OC" ; wanted: its TGI
-- reply 14.9 µM

-- ask # input molecule: "C=C1C(=O)O[C@H]2[C@H]1CC/C(COC(=O)NCc1ccc(Cn3c(=O)sn(CCCl)c3=O)cc1)=C\CC[C@@]1(C)O[C@@H]21" ; wanted: its TGI
-- reply 3.68 µM

-- ask # input molecule: "O=[N+]([O-])/C(C(Cl)=C(Cl)Cl)=C(\N1CCOCC1)n1nnc2ccccc21" ; wanted: its TGI
-- reply 35.1 µM

-- ask # input molecule: "CC(CCN)(CCN)[N+](=O)[O-]" ; wanted: its TGI
-- reply > 100 µM

-- ask # input molecule: "COc1c(C)c2c(c(O)c1C/C=C(\C)CCC(=O)O)C(=O)OC2" ; wanted: its TGI
-- reply > 100 µM

-- ask # input molecule: "COc1ccc(Nc2nnc(-c3nsc4ccccc34)s2)cc1" ; wanted: its TGI
-- reply > 100 µM

-- ask # input molecule: COC1(OC)c2no[n+]([O-])c2CCC1O (stereo not given) ; wanted: its TGI
-- reply > 100 µM
